system_tested: IMP-1 (Serratia marcescens)
Sequence (P52699 19-246, looked up, species assumed): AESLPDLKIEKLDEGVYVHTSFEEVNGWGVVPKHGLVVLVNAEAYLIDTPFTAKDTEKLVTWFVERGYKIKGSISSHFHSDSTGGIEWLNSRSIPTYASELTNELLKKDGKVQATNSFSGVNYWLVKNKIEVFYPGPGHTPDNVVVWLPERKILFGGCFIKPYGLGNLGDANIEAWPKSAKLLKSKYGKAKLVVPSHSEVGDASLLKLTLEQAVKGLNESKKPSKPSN
protocol_description: Enzyme activity: determination of IC50, fluorescence assay with CCF2-FA substrate
Assay type: biochemical
condition_label: IMP-1 enzyme 2 pM, CCF2-FA 1.25 μM, 2 hours at 25° C.; read-out: IMP1 IC50
pIC50: −log10 of the molar value.
Measured pIC50 of individual entries

compound: CCC[C@H](C(=O)O)[C@H](Cc1ccc(C2CCNC2)nc1)c1nnn[nH]1 (stereo partly drawn)
pIC50: 4.70
--
compound: CC(C)C[C@H](C(=O)O)[C@H](Cc1ccc(Oc2ccccc2N2CCNCC2)nc1)c1nn[nH]n1 [Example 387]
pIC50: 5.62
--
compound: CC(C)C[C@H](C(=O)O)[C@H](Cc1ccc(N[C@@H]2CC[C@H](N)C2)nc1)c1nnn[nH]1
pIC50: 5.92
--
compound: CC(C)C[C@H](C(=O)O)[C@H](Cc1ccc(N2CCCC(CO)C2)nc1)c1nnn[nH]1 (stereo partly drawn)
pIC50: 6.82
--
compound: CC(C)C[C@H](C(=O)O)[C@H](Cc1ccc(N2CCC(CNS(C)(=O)=O)CC2)nc1)c1nnn[nH]1
pIC50: 6.60
--
compound: CCC[C@H](C(=O)O)[C@H](Cc1ccc(CCC(O)CO)cc1)c1nn[nH]n1 (stereo partly drawn)
pIC50: 6.72
--
compound: CC(C)C[C@H](C(=O)O)[C@H](Cc1ccc(-c2ccc(CN)cc2)c(F)c1)c1nn[nH]n1 [Example 454, 2,2,2-trifluoroacetate]
pIC50: 7.61
--
compound: CCC[C@H](C(=O)O)[C@H](Cc1ccc(C2CCN(C(=N)N)C2)nc1)c1nnn[nH]1 (stereo partly drawn)
pIC50: 5.56
--
compound: CC(C)C[C@H](C(=O)O)[C@H](Cc1cc(Cl)nc(NCCO)c1)c1nnn[nH]1
pIC50: 6.03
--
compound: CC(C)C[C@H](C(=O)O)[C@H](Cc1ccc(CN2CCNCC2)c(F)c1)c1nn[nH]n1.O=C(O)C(F)(F)F [Example 446, 2,2,2-trifluoroacetate]
pIC50: 6.42
--
compound: CCC[C@H](C(=O)O)[C@H](Cc1cccc(-c2ccc(C3CCNCC3)cc2)c1)c1nn[nH]n1
pIC50: 6.42
--
compound: CCC[C@H](C(=O)O)[C@H](Cc1ccc(-c2cnc(C)c(C)n2)cc1)c1nnn[nH]1
pIC50: 6.60
--
compound: CCC[C@H](C(=O)O)[C@H](Cc1cccc(-c2ccccc2CN2CCCCC2)c1)c1nn[nH]n1
pIC50: 5.68
--
compound: CCC[C@H](C(=O)O)[C@H](Cc1cccc(-c2cccc(OC3CCNCC3)n2)c1)c1nn[nH]n1
pIC50: 6.27
--
compound: CCC[C@H](C(=O)O)[C@H](Cc1ccc(-c2ccc(-c3nnn[nH]3)cc2)cc1)c1nnn[nH]1
pIC50: 8.01
